Every entry's value here was drawn from paper PMC9090415.

MEASURED ON: UniProt:Q8ILY1
EXPERIMENT SUMMARY: Fluorescence-based high-throughput DNA polymerase assay (molecular beacon), primary screen and dose-response
Assay type: biochemical
MEASUREMENT CONTEXT: DRC-2; concentration 80; 40'
Please note: YES applies when % inhibition Apol 40' is 60% or greater, and NO applies otherwise.

# count of solved cases: 6
# STRUCTURE NOTATION, CLASS ASSIGNMENT
rows = [
    ("O=C(O)c1cc([N+](=O)[O-])c(N2CCN(c3cccc(C(F)(F)F)c3)CC2)c([N+](=O)[O-])c1", "YES"),
    ("COc1ccc(NC(=O)Cn2nc3c(cc2=O)CCC3)cc1Cl", "YES"),
    ("COc1ccc(C=C2Oc3c(ccc4c3CN(Cc3ccco3)CO4)C2=O)c(OC)c1", "NO"),
    ("O=C(O)c1nc(-c2ccccc2)nc2c1OCO2", "YES"),
    ("CCCCCc1c2c(cc(O)c1C(=O)O)OC(=O)c1c(cc(OC)cc1C(=O)CCCC)O2", "YES"),
    ("CCCN1COc2ccc3c(=O)c(-c4ccccc4)coc3c2C1", "NO"),
]

Exercise: Decide: % inhibition Apol 40' of CCc1ccccc1NC(=O)c1ccc(-c2ncccc2NC(C)=O)cc1 >= 60%?
Solution: YES

Exercise: Could you tell me if the measured % inhibition Apol 40' of O=[N+]([O-])c1ccc(SCc2ccco2)c2cccnc12 reaches 60% or more?
Solution: NO

====

% inhibition ApPOL 90' values, listed per item
MEASURED ON: P. falciparum apicoplast DNA polymerase (Pf-apPOL) (Plasmodium falciparum, UniProt Q8ILY1)
Sequence (Q8ILY1 entry or part of it): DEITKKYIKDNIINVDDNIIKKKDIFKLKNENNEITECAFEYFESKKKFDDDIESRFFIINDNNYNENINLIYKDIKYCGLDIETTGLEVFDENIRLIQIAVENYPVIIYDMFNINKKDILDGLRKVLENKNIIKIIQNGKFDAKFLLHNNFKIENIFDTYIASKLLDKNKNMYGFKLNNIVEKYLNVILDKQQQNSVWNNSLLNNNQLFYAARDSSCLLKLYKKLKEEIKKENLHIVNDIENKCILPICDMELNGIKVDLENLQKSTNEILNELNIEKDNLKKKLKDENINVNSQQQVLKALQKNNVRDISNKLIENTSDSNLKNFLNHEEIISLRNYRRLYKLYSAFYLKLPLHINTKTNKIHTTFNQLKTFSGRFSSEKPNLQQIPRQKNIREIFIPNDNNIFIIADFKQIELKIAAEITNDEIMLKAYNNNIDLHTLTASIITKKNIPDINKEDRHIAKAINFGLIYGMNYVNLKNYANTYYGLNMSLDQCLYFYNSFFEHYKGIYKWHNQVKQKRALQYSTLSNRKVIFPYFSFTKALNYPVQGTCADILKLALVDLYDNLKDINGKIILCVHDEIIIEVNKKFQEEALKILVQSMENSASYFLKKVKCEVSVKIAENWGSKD
EXPERIMENT SUMMARY: Fluorescence-based high-throughput DNA polymerase assay (molecular beacon), primary screen and dose-response;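 as to % inhibition ApPOL 90': test concentration in µM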
Type: biochemical
MEASUREMENT CONTEXT: DRC-2; 90'; concentration 20
State the answer as a number, implicitly in %.

Observe how each entry below is paired with its result.
# COMPOUND, ENDPOINT RESULT
measured = [
    ("CCCCSc1nnc2c(n1)OC(c1ccc([N+](=O)[O-])o1)Nc1ccccc1-2 (stereo not shown)", 59),
    ("O=c1cc(CN2CCCCC2)c2cc3c(cc2o1)OCO3", 39),
    ("OC(C#Cc1ccccc1)c1ccco1 (stereo not shown)", 67),
]

Here is the next item to consider.
Exercise: Using known records, supply % inhibition ApPOL 90' for Cc1ccc(CCNC(=O)c2cnn3c(O)c(Cc4ccccc4F)c(C)nc23)cc1
Solution: 52

====

MEASURED ON: P. falciparum apicoplast DNA polymerase (Pf-apPOL) (Plasmodium falciparum, UniProt Q8ILY1)
EXPERIMENT SUMMARY: Fluorescence-based high-throughput DNA polymerase assay (molecular beacon), primary screen and dose-response;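 as to % inhibition Apol 40': compound concentration given in µM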
Assay type: biochemical
MEASUREMENT CONTEXT: DRC-2; 40'; concentration 5
Source text: The HT assay employs a molecular beacon, a stem-loop DNA template with a Cy3 dye and the Black Hole Quencher on the 3′ and 5′ ends of the DNA, respectively. Pf-apPOL concentration is based on a calculated absorptivity of ε280 = 56750 M^−1 cm^−1. […] To identify apPOL inhibitors we utilised our previously developed high-throughput DNA polymerase assay. […] The assay accurately recapitulates the kinetic behaviour of apPOL, as measured through more conventional low-throughput gel-based assays. […]
% inhibition Apol 40': recorded values
Write the value in % as a bare number.

# COMPOUND, MEASUREMENT UNITS, % inhibition Apol 40'
rows = [
    ("N#CC(=NNc1cc(C(F)(F)F)cc(C(F)(F)F)c1)C(=O)c1ccco1", "%", 15),
    ("O=C(Cn1ccc2c(=O)[nH]ccc21)Nc1ccc(Cl)cc1 [Molecule 36, O=C(Cn1ccc2c1cc[nH]c2=O)Nc1ccc(cc1)Cl]", "%", 24),
    ("CCOC(=O)C1=C2c3cc(OC)c(OC)cc3CC(C)(C)N2C(=O)C1=O", "%", -3),
]

Exercise: Retrieve % inhibition Apol 40' on P. falciparum apicoplast DNA polymerase (Pf-apPOL) (Plasmodium falciparum, UniProt Q8ILY1); query COc1ccc(-c2n[nH]cc2Oc2ccc(Cl)cc2)c(O)c1
Solution: 27

Exercise: # assay system P. falciparum apicoplast DNA polymerase (Pf-apPOL) (Plasmodium falciparum, UniProt Q8ILY1): give % inhibition Apol 40' of CCCCCCCCCCCCCCCCCC(=O)CCN(C)C
Solution: 4

Exercise: Find % inhibition Apol 40' for O=C1NCCCn2cc(S(=O)(=O)Nc3ccccc3)cc21 on P. falciparum apicoplast DNA polymerase (Pf-apPOL) (Plasmodium falciparum, UniProt Q8ILY1) and write it down.
Solution: 8

Exercise: // output % inhibition Apol 40'; input Cc1ccc(C)c(CSc2nc(C3CCCCC3)c(C#N)c(=O)[nH]2)c1 ; system P. falciparum apicoplast DNA polymerase (Pf-apPOL) (Plasmodium falciparum, UniProt Q8ILY1)
Solution: 18

Exercise: Recall the reported % inhibition Apol 40' of COc1ccc(NC(=O)Cn2ccc3c(=O)[nH]ccc32)cc1Cl [Molecule 10, COc1ccc(cc1Cl)NC(=O)Cn1ccc2c1cc[nH]c2=O] when tested on P. falciparum apicoplast DNA polymerase (Pf-apPOL) (Plasmodium falciparum, UniProt Q8ILY1).
Solution: 47
